test system: human prostate PC3-mm2 tumor cell line; test: In vitro cell culture growth assay (MTS), PC3-mm2; type: cell-based; details: Homo sapiens, PC3MM2, 72 h, MTS cell growth assay, three days after drug treatment; read-out: IC50 PC3-mm2
# maps each entry to its IC50

>  <smiles.record>
O=C(Nc1ccc(C(=O)N2CCNCC2)cc1)Nc1ccc(-c2nc(N3CCOCC3)nc(N3CCOCC3)n2)cc1

>  <measured.property>
IC50

>  <measured.value>
< 30 nM

$$$$
>  <smiles.record>
Cc1cc(NC(=O)Nc2ccc(-c3nc(N4CCOCC4)nc(N4CCOCC4)n3)cc2)ccn1

>  <measured.property>
IC50

>  <measured.value>
79 nM

$$$$
>  <smiles.record>
C[C@H]1COCCN1c1nc(-c2ccc(NC(=O)Nc3ccncc3)cc2)nc(N2CCOCC2)n1

>  <measured.property>
IC50

>  <measured.value>
47 nM

$$$$
>  <smiles.record>
O=C(Nc1ccc(F)cc1)Nc1ccc(-c2nc(N3CCOCC3)nc(N3CC4CCC(C3)O4)n2)cc1

>  <measured.property>
IC50

>  <measured.value>
142 nM

$$$$

The value of IC50 recorded for CC(C)Cc1nc(-c2ccc(NC(=O)Nc3ccc(C(=O)N(C)CCN(C)C)cc3)cc2)nc(N2CCOCC2)n1 when tested on human prostate PC3-mm2 tumor cell line reads 35 nM

The value of IC50 recorded for CN(C)c1ccc(NC(=O)Nc2ccc(-c3nc(N4CCOCC4)nc(N4CCC5(CC4)OCCO5)n3)cc2)cc1 when tested on human prostate PC3-mm2 tumor cell line reads 1950 nM

The value of IC50 recorded for CCc1nc(-c2ccc(NC(=O)Nc3ccc(C(=O)N4CCNC(C)(C)C4)cc3)cc2)nc(N2CCOCC2)n1 when tested on human prostate PC3-mm2 tumor cell line reads 165 nM

====

target: PI3K-γ (Homo sapiens); experiment: PI3K-gamma fluorescence polarization assay; conditions: read-out: IC50 PI3Kγ
Sequence (P48736 whole entry, species assumed): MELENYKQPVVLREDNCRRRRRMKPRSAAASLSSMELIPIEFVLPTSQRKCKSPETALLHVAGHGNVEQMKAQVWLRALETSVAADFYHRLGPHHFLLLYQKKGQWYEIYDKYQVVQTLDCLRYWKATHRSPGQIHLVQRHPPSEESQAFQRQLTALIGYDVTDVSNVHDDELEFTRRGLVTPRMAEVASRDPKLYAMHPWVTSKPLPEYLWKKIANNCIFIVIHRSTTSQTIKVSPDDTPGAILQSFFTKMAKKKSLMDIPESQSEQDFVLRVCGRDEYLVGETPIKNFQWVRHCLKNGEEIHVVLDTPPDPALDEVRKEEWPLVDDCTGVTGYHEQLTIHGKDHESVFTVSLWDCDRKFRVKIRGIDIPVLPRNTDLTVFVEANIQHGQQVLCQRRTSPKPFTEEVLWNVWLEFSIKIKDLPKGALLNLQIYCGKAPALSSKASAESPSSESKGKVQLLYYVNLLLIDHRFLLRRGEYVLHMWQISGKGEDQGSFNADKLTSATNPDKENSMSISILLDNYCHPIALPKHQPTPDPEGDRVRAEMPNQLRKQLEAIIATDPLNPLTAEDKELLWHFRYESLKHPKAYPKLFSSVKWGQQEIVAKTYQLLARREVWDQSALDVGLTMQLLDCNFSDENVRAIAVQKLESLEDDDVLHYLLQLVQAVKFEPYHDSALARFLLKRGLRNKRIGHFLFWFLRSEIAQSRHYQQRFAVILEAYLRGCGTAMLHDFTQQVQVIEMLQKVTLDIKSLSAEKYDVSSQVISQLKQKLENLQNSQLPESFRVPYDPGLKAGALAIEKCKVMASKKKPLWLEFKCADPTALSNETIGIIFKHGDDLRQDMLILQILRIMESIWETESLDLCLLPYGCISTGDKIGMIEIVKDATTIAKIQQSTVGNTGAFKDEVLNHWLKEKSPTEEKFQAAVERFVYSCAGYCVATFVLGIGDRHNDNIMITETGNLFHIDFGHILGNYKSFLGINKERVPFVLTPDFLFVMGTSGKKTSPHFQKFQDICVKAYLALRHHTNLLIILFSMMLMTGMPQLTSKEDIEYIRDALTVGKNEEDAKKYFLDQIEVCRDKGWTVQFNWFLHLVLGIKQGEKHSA
pIC50: −log10 of the molar value.
Classification field: enter 1 (yes) for pIC50 values not below 7, 0 (no) for values below it.

Below, 5 compounds whose answers are already recorded.
>  <compound>
COC(=O)c1ccc(NC(=O)Nc2ccc(-c3nc(NS(=O)(=O)c4ccccc4)nc(N4CCOCC4)n3)cc2)cc1

>  <assigned.label>
0 (no)

$$$$
>  <compound>
NC(=O)c1ccc(NC(=O)Nc2ccc(-c3nc(Nc4ccc(N5CCNCC5)cc4)nc(N4CC5CCC(C4)O5)n3)cc2)cc1

>  <assigned.label>
0 (no)

$$$$
>  <compound>
O=C(Nc1ccncc1)Nc1ccc(-c2nc(N3CCC(NCc4ccccc4)CC3)nc(N3CC4CCC(C3)O4)n2)cc1

>  <assigned.label>
0 (no)

$$$$
>  <compound>
O=C(Nc1ccc(F)cc1)Nc1ccc(-c2nc(NC3CNC3)nc(N3CCOCC3)n2)cc1

>  <assigned.label>
0 (no)

$$$$
>  <compound>
O=C(Nc1ccncc1)Nc1ccc(-c2nc(N3CCOCC3)nc(N3C4COCC3[C@@H](O)C4)n2)cc1 (stereo partly shown)

>  <assigned.label>
0 (no)

$$$$

Now, please, on to the next compound.
QUERY: Determine whether measured pIC50 meets or exceeds 7 for CNCCN(C)C(=O)c1ccc(NC(=O)Nc2ccc(-c3nc(N4CCOCC4)nc(N4C5CCC4COC5)n3)cc2)cc1
RESULT: 1 (yes)

====

biological target: Human mTOR (FLAG-TOR) (Homo sapiens, UniProt P42345); assay: mTOR kinase assay (DELFIA format, purified enzyme); format: biochemical; details: read-out: IC50 mTOR
Sequence (P42345 1360-2549 limits assumed): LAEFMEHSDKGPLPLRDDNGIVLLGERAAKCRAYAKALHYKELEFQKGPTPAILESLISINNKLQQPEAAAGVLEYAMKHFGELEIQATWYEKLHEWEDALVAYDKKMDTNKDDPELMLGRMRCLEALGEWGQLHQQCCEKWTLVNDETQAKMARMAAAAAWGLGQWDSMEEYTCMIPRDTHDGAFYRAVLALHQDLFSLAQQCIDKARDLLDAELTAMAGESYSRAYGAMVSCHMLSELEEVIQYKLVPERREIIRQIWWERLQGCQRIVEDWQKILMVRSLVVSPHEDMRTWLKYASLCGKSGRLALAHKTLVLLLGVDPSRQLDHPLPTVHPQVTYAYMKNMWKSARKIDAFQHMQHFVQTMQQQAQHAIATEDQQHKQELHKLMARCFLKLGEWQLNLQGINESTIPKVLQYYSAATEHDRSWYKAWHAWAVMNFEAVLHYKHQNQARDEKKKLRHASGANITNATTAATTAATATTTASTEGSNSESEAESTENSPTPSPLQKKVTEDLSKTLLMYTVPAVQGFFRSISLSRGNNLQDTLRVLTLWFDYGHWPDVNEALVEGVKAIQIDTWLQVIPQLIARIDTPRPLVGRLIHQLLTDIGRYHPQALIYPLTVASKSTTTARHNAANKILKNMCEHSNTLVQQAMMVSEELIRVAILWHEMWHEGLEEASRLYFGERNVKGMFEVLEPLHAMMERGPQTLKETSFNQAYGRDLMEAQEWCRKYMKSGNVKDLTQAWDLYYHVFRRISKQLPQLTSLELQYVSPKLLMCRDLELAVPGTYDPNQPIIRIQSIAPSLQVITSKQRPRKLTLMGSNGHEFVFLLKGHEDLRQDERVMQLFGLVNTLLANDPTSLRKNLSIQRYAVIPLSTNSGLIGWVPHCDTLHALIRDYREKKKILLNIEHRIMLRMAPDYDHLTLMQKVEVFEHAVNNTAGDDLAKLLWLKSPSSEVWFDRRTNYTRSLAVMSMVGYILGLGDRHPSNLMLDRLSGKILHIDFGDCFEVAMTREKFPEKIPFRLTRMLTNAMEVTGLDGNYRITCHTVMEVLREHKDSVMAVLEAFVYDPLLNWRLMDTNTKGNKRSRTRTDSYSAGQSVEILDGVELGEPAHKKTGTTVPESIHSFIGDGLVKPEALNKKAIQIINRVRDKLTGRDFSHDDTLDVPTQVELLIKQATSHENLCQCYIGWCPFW
measured.property: pIC50
Scale note: pIC50 = -log10(concentration in M).

Value of measured pIC50 for the entry CC(=O)c1ccc(NC(=O)Nc2ccc(-c3nc(N4CCOCC4)nc(N4C[C@H]5C[C@@H]4CN5C(=O)OC(C)(C)C)n3)cc2)cc1 [Example 257] : 7.07

====

molecular target: PI3K-α (Homo sapiens); assay: PI3K-alpha fluorescence polarization assay; details: read-out: IC50 PI3Kα
Sequence (P42336 whole entry, species assumed): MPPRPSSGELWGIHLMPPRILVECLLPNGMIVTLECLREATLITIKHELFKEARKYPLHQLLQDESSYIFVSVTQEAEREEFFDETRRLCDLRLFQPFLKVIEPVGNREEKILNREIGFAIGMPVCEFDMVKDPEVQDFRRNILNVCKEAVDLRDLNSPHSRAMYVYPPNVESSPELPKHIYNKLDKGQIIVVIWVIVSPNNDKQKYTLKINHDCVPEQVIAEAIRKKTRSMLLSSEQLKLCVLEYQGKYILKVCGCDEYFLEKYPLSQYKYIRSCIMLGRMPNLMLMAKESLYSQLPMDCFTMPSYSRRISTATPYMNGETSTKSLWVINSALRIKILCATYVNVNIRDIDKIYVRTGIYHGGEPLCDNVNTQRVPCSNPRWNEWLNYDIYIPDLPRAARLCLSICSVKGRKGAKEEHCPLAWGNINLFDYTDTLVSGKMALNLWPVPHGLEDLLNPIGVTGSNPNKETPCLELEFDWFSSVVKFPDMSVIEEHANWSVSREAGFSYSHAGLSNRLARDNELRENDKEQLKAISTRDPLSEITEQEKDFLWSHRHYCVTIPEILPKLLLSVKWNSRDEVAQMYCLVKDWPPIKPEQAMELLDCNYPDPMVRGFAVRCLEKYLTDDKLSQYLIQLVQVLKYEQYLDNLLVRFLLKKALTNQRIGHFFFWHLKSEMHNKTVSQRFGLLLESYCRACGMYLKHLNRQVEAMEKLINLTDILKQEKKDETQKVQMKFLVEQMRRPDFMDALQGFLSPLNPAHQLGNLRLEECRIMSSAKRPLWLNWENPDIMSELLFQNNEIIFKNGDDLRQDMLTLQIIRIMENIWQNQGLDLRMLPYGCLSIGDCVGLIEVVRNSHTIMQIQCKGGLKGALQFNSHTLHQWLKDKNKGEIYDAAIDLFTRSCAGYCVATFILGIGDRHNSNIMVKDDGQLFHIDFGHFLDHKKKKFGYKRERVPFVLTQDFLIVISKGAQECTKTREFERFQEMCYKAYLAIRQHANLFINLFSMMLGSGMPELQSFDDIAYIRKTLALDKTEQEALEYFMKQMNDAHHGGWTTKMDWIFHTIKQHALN
Sequence (P27986 whole entry partner, species assumed): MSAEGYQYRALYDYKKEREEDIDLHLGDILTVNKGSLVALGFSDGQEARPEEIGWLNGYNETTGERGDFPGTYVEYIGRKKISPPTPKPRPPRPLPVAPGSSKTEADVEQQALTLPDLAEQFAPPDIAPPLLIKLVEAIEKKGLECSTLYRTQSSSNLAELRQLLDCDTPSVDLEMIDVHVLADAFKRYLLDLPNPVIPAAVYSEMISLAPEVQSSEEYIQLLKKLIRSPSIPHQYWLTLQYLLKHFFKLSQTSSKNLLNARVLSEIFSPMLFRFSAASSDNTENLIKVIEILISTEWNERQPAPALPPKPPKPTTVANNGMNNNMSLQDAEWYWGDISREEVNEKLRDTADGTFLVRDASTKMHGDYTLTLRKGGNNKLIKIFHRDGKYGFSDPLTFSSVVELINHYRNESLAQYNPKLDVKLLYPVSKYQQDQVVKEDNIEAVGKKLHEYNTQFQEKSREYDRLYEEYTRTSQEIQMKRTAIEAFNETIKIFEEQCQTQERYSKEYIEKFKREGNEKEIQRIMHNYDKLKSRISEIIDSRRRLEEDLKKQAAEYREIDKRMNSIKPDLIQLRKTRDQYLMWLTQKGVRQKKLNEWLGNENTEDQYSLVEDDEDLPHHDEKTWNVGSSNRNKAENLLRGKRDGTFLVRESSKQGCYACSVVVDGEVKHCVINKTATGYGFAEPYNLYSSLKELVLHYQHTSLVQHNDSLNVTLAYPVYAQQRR
measured.property: IC50 (nM)
Express your answer in nM, writing the number without its unit.

# count of solved cases: 8
>  <compound>
CC(=O)c1cccc(NC(=O)Nc2ccc(-c3nc(OC4CCOCC4)nc(N4CCOCC4)n3)cc2)c1

>  <IC50 / nM>
15

$$$$
>  <compound>
O=C(CN1CCCC1)Nc1ccc(NC(=O)Nc2ccc(-c3nc(N4CC5CCC(C4)O5)nc(N4CC5CCC(C4)O5)n3)cc2)cc1

>  <IC50 / nM>
8.5

$$$$
>  <compound>
CCCC1CCN(C(=O)c2ccc(NC(=O)Nc3ccc(-c4nc(N5CCOC[C@@H]5C)nc(N5CCOC[C@@H]5C)n4)cc3)cc2)CC1

>  <IC50 / nM>
231

$$$$
>  <compound>
CC(C)Cc1nc(-c2ccc(NC(=O)Nc3ccc(C(=O)N(C)CCN(C)C)cc3)cc2)nc(N2CCOCC2)n1

>  <IC50 / nM>
1

$$$$
>  <compound>
CC(C)N1CCCN(c2nc(-c3ccc(NC(=O)Nc4ccc(C(=O)NCCN(C)C)cc4)cc3)nc(N3CCOCC3)n2)CC1

>  <IC50 / nM>
7.5

$$$$
>  <compound>
O=C(Nc1ccncc1)Nc1ccc(-c2nc(N3CCC(NCCN4CCOCC4)CC3)nc(N3CC4CCC(C3)O4)n2)cc1

>  <IC50 / nM>
1650

$$$$
>  <compound>
O=C(Nc1ccc(C(=O)NCCN2CCCC2)cc1)Nc1ccc(-c2nc(N3CCOCC3)nc(N3C4CCC3COC4)n2)cc1

>  <IC50 / nM>
2

$$$$
>  <compound>
O=C(Nc1ccc(-c2nc(N3CCOCC3)nc(N3CC4CCC3CO4)n2)cc1)Nc1cc[nH]n1 (stereo not shown)

>  <IC50 / nM>
395

$$$$

Value of measured IC50 for the entry C[C@@H]1COCCN1c1nc(-c2ccc(NC(=O)Nc3ccc(OCCN4CCCC4)cc3)cc2)nc(N2CCOC[C@H]2C)n1 : 314

Value of measured IC50 for the entry C[C@@H]1COCCN1c1nc(-c2ccc(NC(=O)Nc3ccc(C(=O)N4CCN(C)CC4)cc3)cc2)nc(C2CCOCC2)n1 : 43

Value of measured IC50 for the entry CCc1nc(-c2ccc(NC(=O)Nc3ccc(C(=O)N(C)CCN(C)C)cc3)cc2)nc(N2CCOCC2)n1 : 2

Value of measured IC50 for the entry O=C(Nc1ccc(-c2nc(N3CCOCC3)nc(N3CCC4(CC3)OCCO4)n2)cc1)Nc1cccnc1 : 25

Value of measured IC50 for the entry CN(C)C1CCN(C(=O)c2ccc(NC(=O)Nc3ccc(-c4nc(N5CCCC5)nc(N5CCOCC5)n4)cc3)cc2)CC1 : 7

Value of measured IC50 for the entry CCCN1CCN(C(=O)c2ccc(NC(=O)Nc3ccc(-c4nc(N5CCOC[C@@H]5C)nc(N5CCOC[C@@H]5C)n4)cc3)cc2)CC1 : 16

Value of measured IC50 for the entry O=C(Nc1ccncc1)Nc1ccc(-c2nc(N3CCCC3)nc(N3CC4CCC(C3)O4)n2)cc1 : 851

Value of measured IC50 for the entry CN(C)CCN(C)C(=O)c1ccc(NC(=O)Nc2ccc(-c3nc(-c4cccs4)nc(N4CCOCC4)n3)cc2)cc1 : 1

Value of measured IC50 for the entry O=C(Nc1ccncc1)Nc1ccc(-c2nc(N3CC4CCC(C3)O4)nc(N3[C@H](CO)CC[C@@H]3CO)n2)cc1 : 102

Value of measured IC50 for the entry CC(C)N1CCN(C(=O)c2ccc(NC(=O)Nc3ccc(-c4nc(C5CCOCC5)nc(N5CCOC[C@H]5C)n4)cc3)cc2)CC1 : 90

====

# maps each entry to its IC50
system: human breast MDA-MB-361 tumor cell line; test: In vitro cell culture growth assay (MTS), MDA-MB-361; assay type: cell-based; details: Homo sapiens, MDA-MB-361, 72 h, MTS cell growth assay, three days after drug treatment, MDA-MB-361 cells; read-out: IC50 MDA-MB-361
Express your answer in nM, writing the number without its unit.

# count of solved cases: 6
>  <smiles.record>
CC(C)N1CCN(C(=O)c2ccc(NC(=O)Nc3ccc(-c4nc(N5CCOCC5)nc(N5C6COCC5COC6)n4)cc3)cc2)CC1

>  <assay.system>
human breast MDA-MB-361 tumor cell line

>  <measured.property>
IC50

>  <measured.value>
4

$$$$
>  <smiles.record>
C[C@H]1COCCN1c1nc(-c2ccc(NC(=O)Nc3ccc(C(=O)N4CCCCC4)cc3)cc2)nc(N2CCOC[C@@H]2C)n1

>  <assay.system>
human breast MDA-MB-361 tumor cell line

>  <measured.property>
IC50

>  <measured.value>
26

$$$$
>  <smiles.record>
O=C(Nc1ccc(F)cc1)Nc1ccc(-c2nc(N3CCOCC3)nc(N3C4CCC3COC4)n2)cc1

>  <assay.system>
human breast MDA-MB-361 tumor cell line

>  <measured.property>
IC50

>  <measured.value>
98

$$$$
>  <smiles.record>
CC(C)N1CCN(C(=O)c2ccc(NC(=O)Nc3ccc(-c4nc(N5CCCC5)nc(N5CCOCC5)n4)cc3)cc2)CC1

>  <assay.system>
human breast MDA-MB-361 tumor cell line

>  <measured.property>
IC50

>  <measured.value>
17

$$$$
>  <smiles.record>
CN1CCN(C(=O)c2ccc(NC(=O)Nc3ccc(-c4nc(N5CCCC5)nc(N5CCOCC5)n4)cc3)cc2)CC1

>  <assay.system>
human breast MDA-MB-361 tumor cell line

>  <measured.property>
IC50

>  <measured.value>
24

$$$$
>  <smiles.record>
Cc1ccc(-c2nc(-c3ccc(NC(=O)Nc4ccc(C(=O)N5CCN(C(C)C)CC5)cc4)cc3)nc(N3CCOCC3)n2)cc1

>  <assay.system>
human breast MDA-MB-361 tumor cell line

>  <measured.property>
IC50

>  <measured.value>
68

$$$$

Value of measured IC50 for the entry CN1CCN(C(=O)c2ccc(NC(=O)Nc3ccc(-c4nc(N5CCCCC5)nc(N5CCOCC5)n4)cc3)cc2)CC1 : 45

Value of measured IC50 for the entry CC(C)N1CCN(C(=O)c2ccc(NC(=O)Nc3ccc(-c4nc(N5CCC5)nc(N5CCOCC5)n4)cc3)cc2)CC1 : 26

Value of measured IC50 for the entry CCCN(CCC)C1CCN(C(=O)c2ccc(NC(=O)Nc3ccc(-c4nc(N5CCOC[C@@H]5C)nc(N5CCOC[C@@H]5C)n4)cc3)cc2)CC1 : 4

Value of measured IC50 for the entry CCN1CCN(C(=O)c2ccc(NC(=O)Nc3ccc(-c4nc(N5CCOCC5)nc(N5CCOC[C@@H]5C)n4)cc3)cc2)CC1 : 4

Value of measured IC50 for the entry CN(C)C1CCN(C(=O)c2ccc(NC(=O)Nc3ccc(-c4nc(N5CCOCC5)nc(N5C6CCCC5COC6)n4)cc3)cc2)CC1 : 2

Value of measured IC50 for the entry C[C@H]1COCCN1c1nc(-c2ccc(NC(=O)Nc3ccncc3)cc2)nc(N2CCOC[C@@H]2C)n1 : 24
